measured_on: HLA DRB1*0901 (human)
experiment_notes: competition with 125I probe peptide, purified HLA
pIC50: −log10 of the molar value.
# label = true if pIC50 >= 5 else false

> print(dat)
                                     binder  group
1  NGWFYVEAVIDRQTG (modifications not checked) [HPV31.E1.15 HTL epitope]   true
2  DWVMAIFGVNPTVAEGF (modifications not checked) [HPV45.E1.228 HTL epitope]  false
3  WKHMRLECAIYYKAR (modifications not checked) [HPV16.E2.033 HTL epitope]   true
4  FHSIAGQYRGQCNTC (modifications not checked) [HPV45.E6.127 HTL epitope]   true
